test system: genotype 1a replicon (1a-H77); assay: 1a stable replicon (luciferase reporter); format: cell-based, HCV; settings: Hepatitis C virus, Huh-7, luciferase reporter, HuH-7 cells, 5% FBS

- line notation: "Cc1cc(C(=O)N[C@H]2CCCCC/C=C\\[C@@H]3C[C@@]3(C(=O)NS(=O)(=O)C3CC3)NC(=O)[C@@H]3C[C@@H](Oc4nc5cc(F)ccc5c5cc(F)ccc45)CN3C2=O)no1"
  EC50: "0.1 to 0.5 nM"
- line notation: "CC1(S(=O)(=O)NC(=O)[C@@]23C[C@H]2/C=C\\CCCCC[C@H](NC(=O)[C@H](O)C(F)(F)F)C(=O)N2C[C@H](Oc4nc5cc(F)ccc5c5ccccc45)C[C@H]2C(=O)N3)CC1"
  EC50: "0.1 to 0.5 nM"
- line notation: "CC1(S(=O)(=O)NC(=O)[C@@]23C[C@H]2/C=C\\CCCCC[C@H](NC(=O)c2ccns2)C(=O)N2C[C@H](Oc4nc5cc(F)ccc5c5ccccc45)C[C@H]2C(=O)N3)CC1"
  EC50: "0.5 to 1 nM"
- line notation: "Cc1cc(C(=O)N[C@H]2CCCCC/C=C\\[C@@H]3C[C@@]3(C(=O)NS(=O)(=O)C3CC3)NC(=O)[C@@H]3C[C@@H](Oc4nc5cc(F)ccc5c5ccccc45)CN3C2=O)no1"
  EC50: "0.1 to 0.5 nM"
